Data provenance is paper PMC6154694.

Would you mind telling me the reported Concentration Ratio (Total/Free) of GE Phenolics of each entry?
# method: Mouse pharmacokinetic study of oral GE with and without ketoconazole, plasma with and without β-glucuronidase treatment
# Format: in vivo, male mice (C57BL6J)
# experimental.setup: GE administered group, mouse plasma; 1 h
Please reply with the number alone, leaving off any unit.

Value lookup for Concentration Ratio (Total/Free) of GE Phenolics; key = CCCCCCCCCC(O)CC(=O)CCc1ccc(O)c(OC)c1 (stereo not shown) [10G, 10-gingerol]
8

Value lookup for Concentration Ratio (Total/Free) of GE Phenolics; key = CCCCCCCC(O)CC(=O)CCc1ccc(O)c(OC)c1 (stereo not shown)
16

Value lookup for Concentration Ratio (Total/Free) of GE Phenolics; key = `CCCCC/C=C/C(=O)CCc1ccc(O)c(OC)c1`
1

Value lookup for Concentration Ratio (Total/Free) of GE Phenolics; key = `CCCCC[C@H](O)CC(=O)CCc1ccc(O)c(OC)c1`
0

----------
# method: Mouse pharmacokinetic study of oral GE with and without ketoconazole, plasma with and without β-glucuronidase treatment
# Assay type: in vivo, male mice (C57BL6J)
# experimental.setup: male, C57BL6J; mouse plasma; 250 mg/kg GE oral; 1 h; −βgd
Would you mind telling me the reported concentration at 1 h of each entry?
Just the number in ng/mL, nothing appended.

Value lookup for concentration at 1 h; key = CCCCCCCC(O)CC(=O)CCc1ccc(O)c(OC)c1 (stereo not shown)
0.42

Value lookup for concentration at 1 h; key = `CCCCC[C@H](O)CC(=O)CCc1ccc(O)c(OC)c1`
1.04

Value lookup for concentration at 1 h; key = `CCCCC/C=C/C(=O)CCc1ccc(O)c(OC)c1`
0.67

Value lookup for concentration at 1 h; key = CCCCCCCCCC(O)CC(=O)CCc1ccc(O)c(OC)c1 (stereo not shown) [10G, 10-gingerol]
2.21

----------
# method: Liver microsomal stability, dog
# Type: in vitro ADME, Beagle dog
# experimental.setup: dog liver microsomes; substrate 10 µM; protein 0.5 mg/mL; 45 mg protein/g liver
measurement.kind: Intrinsic Clearance (mL/min/g Liver)
Just the number in mL/min/g Liver, nothing appended.

Value lookup for Intrinsic Clearance; key = CCCCCCCCCC(O)CC(=O)CCc1ccc(O)c(OC)c1 (stereo not shown) [10G, 10-gingerol]
5.6

Value lookup for Intrinsic Clearance; key = CCCCC[C@H](O)CC(=O)CCc1ccc(O)c(OC)c1 [6G, 6-gingerol]
14.1

Value lookup for Intrinsic Clearance; key = CCCCC/C=C/C(=O)CCc1ccc(O)c(OC)c1 [6S, 6-shogaol]
29.9

Value lookup for Intrinsic Clearance; key = CCCCCCCC(O)CC(=O)CCc1ccc(O)c(OC)c1 (stereo not shown) [8G, 8-gingerol]
14.0

----------
# method: pH dependent kinetic solubility in hydrochloride, citrate and phosphate buffers
# Type: physicochemical
# experimental.setup: 100 mM citrate buffer, 23 °C, aqueous buffer, kinetic from dmso stock; pH 4, citrate buffer; tested 10 to 100 µM; n = 2
# Experimental: Calibration standards were prepared by spiking 5 μL of DMSO stock solutions into 995 μL acetonitrile/buffer (1:1) mixture. Following centrifugation (10,000 rpm, 10 min, 25 °C) the reaction samples were diluted 1:1 with acetonitrile.
measurement.kind: solubility at 2 h

Value lookup for solubility at 2 h; key = CCCCCCCC(O)CC(=O)CCc1ccc(O)c(OC)c1 (stereo not shown)
> 100 µM

Value lookup for solubility at 2 h; key = `CCCCC/C=C/C(=O)CCc1ccc(O)c(OC)c1`
< 10 µM

Value lookup for solubility at 2 h; key = `CCCCC[C@H](O)CC(=O)CCc1ccc(O)c(OC)c1`
> 100 µM

Value lookup for solubility at 2 h; key = CCCCCCCCCC(O)CC(=O)CCc1ccc(O)c(OC)c1 (stereo not shown) [10G, 10-gingerol]
< 10 µM
